subjectOfTest: human neuronal constitutive NOS (hncNOS) (Homo sapiens)
Construct: made in house; host or cells: insect cells, baculovirus vector
testDetails: biochemical
cond: IC50 hncNOS, recombinant human neuronal constitutive NOS, 37° C., 15 minutes, calmodulin 40-100 nM
Where a name gives a salt, the structure may show the parent alone.
reportedEndpoint: IC50 (nM)
Numeric answer only, unit nM assumed.

// returns reported IC50 for input NC1=NC(Cc2ccccc2)CCC1 (stereo not shown) [Example 94, Monohydrochloride]
710

---

Provide the recorded log10 IC50 for the entries that follow.
subjectOfTest: RAW cell miNOS (Mus musculus, UniProt P29477)
Construct: in the presence of LPS to induce NOS; endogenous in cells; host or cells: RAW 264.7 cells, LPS-induced
testDetails: Raw Cell Nitrite Assay
Format: cell-based
cond: RAW 264.7 cells, LPS-induced, L-arginine 30 μM, nitrite production 1 h at 37° C.; read-out: IC50 RAW cell miNOS
Protocol: RAW 264.7 cells are plated to confluency on a 96-well tissue culture plate grown overnight (17 h) in the presence of LPS to induce NOS. […] The media is removed from each well and the cells are washed twice with Krebs-Ringers-Hepes (25 mM, pH 7.4) with 2 mg/ml glucose. […] To terminate the cellular assay, the plate of cells is placed on ice and the nitrite-containing buffer removed and analyzed for nitrite using a previously published fluorescent determination for nitrite. […]
Structures can show the parent of a compound that is named as a salt.
Heads up: the numbers are on a log10 scale; they represent IC50 in µM.

Return reported log10 IC50; argument: N=C1CCCCC(CCCc2ccccc2)N1 (centres unmarked) [Example 37, Monohydrochloride]
1.90

Look up log10 IC50: N=C1CCCCC(CC2CO2)N1 (centres unmarked) [Example 21, Monohydrochloride]
1.45

What value of measured log10 IC50 is listed for N=C1CCCCC(Cc2ccccc2)N1 (single isomer, unassigned; (-)) [Example 16, Monohydrochloride] ?
0.26

Consider the compound N=C1CCCCC(CC2CC(c3ccccc3)=NO2)N1 (centres unmarked) [Example 191, Monotrifluoroacetic Acid Salt] and give its measured log10 IC50.
1.65

Query: log10 IC50; subject: C[C@@H]1CC(=N)N[C@H]1Cc1ccccc1 (relative stereo) [Example 64, Monohydrochloride]
0.73

Give its log10 IC50 value. Item: Cl.N=C1CCCCC(Cc2ccccc2)N1 (centres unmarked) [Example 5, Monohydrochloride]
1.82

Recorded log10 IC50 of N=C1CCCCC(Cc2ccccc2)N1 (single isomer, unassigned; (+)) [Example 14, Monohydrochloride] , please.
2.23

---

subjectOfTest: human inducible NOS (hiNOS) (Homo sapiens)
Construct: made in house; host or cells: insect cells, baculovirus vector
testDetails: Citrulline Assay for Nitric Oxide Synthase, hiNOS
Assay type: biochemical
cond: recombinant human inducible NOS, 37° C., 15 minutes
Structures can show the parent of a compound that is named as a salt.
Label Criterion met when IC50 < 10 µM; otherwise Criterion not met.

Input Cl.N=C1CCCCC(Cc2ccccc2)N1 (centres unmarked) [Example 5, Monohydrochloride] ; condition: IC50 strictly below 10 µM. Does it hold?
Criterion met

Hello, I'm reviewing records and need to know if IC50 of N=C1CCCCC(C/C=C/c2ccccc2)N1 (centres unmarked) [Example 34, Monohydrochloride] is below 10 µM. Could you check?
Criterion met

Quick check: does N=C1CCCCC(CCCc2ccccc2)N1 (centres unmarked) [Example 37, Monohydrochloride] have IC50 under 10 µM?
Criterion not met

# TODO verify IC50 < 10 µM strictly for this molecule: N=C1CCCC(CC2CCCCC2)N1 (centres unmarked) [Example 95, Monohydrochloride]
Criterion met

Bench note: check whether C[C@@H]1CC(=N)N[C@H]1Cc1ccccc1 (relative stereo) [Example 64, Monohydrochloride] shows IC50 below 10 µM
Criterion met

Please indicate whether the reported IC50 of N=C1CCCCC(Cc2ccccc2)N1 (single isomer, unassigned; (+)) [Example 14, Monohydrochloride] is strictly below 10 µM.
Criterion not met

For N=C1CCCCC(CC2CCCCC2)N1 (centres unmarked) [Example 9, Monohydrochloride] , is the recorded IC50 below the cut-off of 10 µM?
Criterion met

Answer whether the molecule N=C1CCCCC(Cc2ccccc2)N1 (single isomer, unassigned; (-)) [Example 16, Monohydrochloride] has IC50 strictly less than 10 µM
Criterion met
